These measurements were taken from ChEMBL document CHEMBL1201862.

# System: HOP-92
# Assay notes: NCI tumour cell line growth inhibition, 48 h
Calls of active or inactive are those of the source. Cut-off read from the data, not from the text of the source: active = GI50 up to about 1.1 µM and inactive = higher.
Field: GI50. Provide a value for each of the compounds that follow.

What value of measured GI50 is listed for `CCN1C(=O)C(=C/C=C/c2ccc(OC)cc2)C(=O)N(CC)C1=S` ? 14.2 µM (inactive)

What value of measured GI50 is listed for `Nc1ccc(C(=O)N/C(=C\c2ccc3c(c2)OCO3)c2nc3ccccc3s2)cc1` ? 12.3 µM (inactive)

What value of measured GI50 is listed for `Oc1ccc(Br)cc1/C=N/C1CCCCC1` ? 72.1 µM (inactive)

What value of measured GI50 is listed for CCc1n[nH]c(=O)n1N1C(=O)C2CC=CCC2C1=O (stereo not given) ? > 100 µM (inactive)

What value of measured GI50 is listed for COc1cc([C@@H]2c3cc4c(cc3[C@@H](NC(=O)c3ccc([N+](=O)[O-])cc3)C3COC(=O)[C@@H]32)OCO4)cc(OC)c1O (stereo not given in full) ? 0.7 µM (active)

What value of measured GI50 is listed for `COC(=O)c1ccccc1/C=C1/Cc2cccc(C)c2C1=O` ? 31.8 µM (inactive)

What value of measured GI50 is listed for `Cc1ccc(NC(=O)/C(Cc2cc(=O)oc3cc(O)ccc23)=N\NC(C)(C)C)cc1C` ? > 100 µM (inactive)

What value of measured GI50 is listed for `O=C(CC1=Nc2nnc(-c3nnc4n3C(=O)C(CC(=O)c3cccnc3)=N4)n2C1=O)c1cccnc1` ? > 100 µM (inactive)

What value of measured GI50 is listed for `C=CCSC1=N/C(=C\c2ccccc2)C(=O)N1CC=C` ? 17.1 µM (inactive)

What value of measured GI50 is listed for COc1ccccc1C12OC(=O)C1(C)Oc1ccccc1C2=O (stereo not given) ? 65 µM (inactive)

What value of measured GI50 is listed for Nc1ccn(C2CCC(COP(=O)(O)OCC(O)COP(=O)(O)OCC3OC(n4cc(F)c(=O)[nH]c4=O)CC3O)O2)c(=O)n1 (stereo not given) ? 0.0419 µM (active)

What value of measured GI50 is listed for CC1=C(/C=C/C(C)=C/C=C/C(C)=C/C=C/C=C(C)/C=C/C=C(C)/C=C/C2=C(C)C(=O)C(O)CC2(C)C)C(C)(C)CC(O)C1=O (stereo not given) ? > 100 µM (inactive)

What value of measured GI50 is listed for CC(=O)OC(/C=C1/C=CC(=O)O1)COC(=O)c1ccccc1 (stereo not given) [ACETYLMELODORINOL] ? > 31.2 µM (inactive)

What value of measured GI50 is listed for `N#C/C(c1nc2ccccc2[nH]1)=c1\s/c(=C/c2ccc(Cl)cc2)c(=O)n1-c1ccccc1` ? > 100 µM (inactive)

What value of measured GI50 is listed for `COc1nc(N)nc2c1n(C)c[n+]2C` ? > 100 µM (inactive)

What value of measured GI50 is listed for `O=c1c2cc3ccccc3n2c(=O)c2cc3ccccc3n12` ? > 100 µM (inactive)

What value of measured GI50 is listed for `O=c1nc(NC(c2ccccc2)(c2ccccc2)c2ccccc2)ccn1CCNCCn1ccc(NC(c2ccccc2)(c2ccccc2)c2ccccc2)nc1=O` ? 5.45 µM (inactive)

What value of measured GI50 is listed for FC(F)(F)c1ccc(C2SCc3nc4ccccc4n32)cc1 (stereo not given) ? 1.11 µM (active)

What value of measured GI50 is listed for COc1ccc(/C=C2\SC(c3ccc(OC)cc3)N(NC(=O)Cc3ccccc3)C2=O)cc1 (stereo not given) ? > 100 µM (inactive)

What value of measured GI50 is listed for CC1(C)O[C@H]2OC3CCC(=O)CC3(O)[C@H]2O1 (stereo not given in full) ? > 73.3 µM (inactive)
